Values were extracted from the supplement of paper PMC9170038.

Test system: MS2 coat protein
Method: apparent KD of MS2 coat protein; designed switch direction (-1 OFF switch, 1 ON switch): -1; higher = weaker reporter binding
Assay Setup: Eterna round: R95; input ligand: microRNA oligo, concentration not stated
Label yes for high-side apparent KD of MS2 coat protein (at or above 50 nM) and no for low-side apparent KD of MS2 coat protein (below it).

Consider the worked cases shown below.
// query In plain terms: is recorded apparent KD of MS2 coat protein at least 50 nM for CUGGUCCGAGGAUAUAUUUUGUGAUACAUGAGGAUCACCCAUGUAAUAAGAUGGAAGUAAAUAGAAGGCGGACUAG [Mat - Exclusion 5 - JL mod - D47] (puzzle: Exclusion 5) ?
// result yes

// query Can GUAAAGGUAGGAUAUACGAAGAAAAAGGGUAGAAGAAAAACACAUGAGGAUCACCCAUGUAGAAGGACCAAAUG [Mat - Exclusion 2 - Mod of my Tesla design - D3] (puzzle: Exclusion 2) be said to have apparent KD of MS2 coat protein at or above 50 nM?
// result no

// query Check this sequence for apparent KD of MS2 coat protein at or above 50 nM: AGAUGUAGAUACCGAUCCUACAUGAGGAUCACCCAUGUAGCUAGACGUGCACGCGAAGCUCGUCAGACUACCAGAAG [salish99_TOv1_r3_084] (puzzle: Sensor v3, turn-off variant 1)
// result yes

// query Please check the record GAUUAUGCAAGCUUUAGGGACAUGAGGAUCACCCAUGUUCGUCUUAUUGAUCUAGGUACGCUGACGUACCUAGAUCU [JL-sv1-2.32 Brourd mod] (puzzle: Sensor v3, turn-off variant 1) and state if its apparent KD of MS2 coat protein is at or above 50 nM.
// result no

// query Hello, I need to know if GCAUCCAAAGUGAGGAUAUACCUCUGGAUACAUAGGUAGAAGGCACAUGAGGAUCACCCAUGUUCCUAGGAUGC [Fiskers BMX 4 - 32] (puzzle: Brourd's mod of Exclusion 4) has measured apparent KD of MS2 coat protein not below 50 nM. Thanks!
// result no

Further cases:
// query API: above_or_equal(metric=apparent KD of MS2 coat protein, cutoff=50 nM) for item AAAGGUGAGUAGGAUAUCCGCGCACGAAUAAAAGGAGAAGGACUUACAUGAGGAUCACCCAUGUAAGGUGGUAA [Ationbi] (puzzle: Exclusion 6)
// result no

// query Form field: apparent KD of MS2 coat protein at least 50 nM? Entry: UUUAAUUUUUUUUUUUUACAAGCUUUUUGCUCGUCUUAUACAUGAGGAUCACCCAUGUAGAUGGAGGGUAAAUUAUC [JMF 86] (puzzle: Sensor v3, turn-off variant 2)
// result no

---

Tested on: MS2 coat protein
Method: apparent KD of MS2 coat protein; designed switch direction (-1 OFF switch, 1 ON switch): 1; higher = weaker reporter binding
Assay Setup: Eterna round: R95; input ligand: FMN 200 uM
Readout Type: apparent KD of MS2 coat protein (µM)
Use µM as the unit, but write only the number.

// query Please give the documented apparent KD of MS2 coat protein of UUUAGUUGCGGGCAGGAUAUGUGUUAAAAUACAUGAGGAUCACCCAUGUGCGGGUAUAACACCCGACAGAAGGGCCAAUCGCGAC [Laonerce - 2] (puzzle: Same State 2)
// result 0.0218

// query For UACAAUCUAUCUGAGGAUAUCAUGAAAAAAACAUGAGGAUCACCCAUGUGCAGGAAAACUGCAUAUGAGAAGGCAGAUAGAUUGA [salish99_SS2_r3_005] (puzzle: Same State 2) , write its apparent KD of MS2 coat protein.
// result 0.0274

// query Quote apparent KD of MS2 coat protein reported for GUUCCACAUGAGGAUCACCCAUGUCACGAACACGCAGGAUAUUGCCUGAGUUUGGACAGGUAAGAAGGGUGAGAGA [Dibeante] (puzzle: Same State 1) please.
// result 0.0643

// query # return recorded apparent KD of MS2 coat protein for entry GGAGAGAGAGCGCAGGAUAUUCGAGGAGAAACAUGAGGAUCACCCAUGUGAGAGAGAGAGGAGAAGGAGAAGGGUGAGAGAGAGG [Altered State 2-14 - Jieux - Same State 2] (puzzle: Same State 2)
// result 0.147

// query State, in one line, measured apparent KD of MS2 coat protein of AGCUAUCGAAAACGAUAGCAAAAGCAUGUACAUGAGGAUCACCCAUGUCAUGUGCAAGCUUUUUGCUCGUCUUAAAA [Zipper 23 - 4] (puzzle: Sensor for hsa-mir-208a)
// result 0.163
